Data origin, for the record: patent US20170298096A1

- TARGET UNDER TEST: T1, His-tagged P3028 (human, also: His-tag, terminus and sequence not given here)
- T1 construct: in solution at 0.5 ug/mL over the peptide cards; found with anti-His-tag antibody and rabbit anti-mouse peroxidase (rampo); also called PGE73; not shown: His-tag
- T1 peptide: VFDEFKPLVEEPQNLIK
- EXPERIMENTAL PROTOCOL: PEPSCAN chip ELISA, His-P3028 in solution;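 further: score is the raw OD at 405 nm from peroxidase colour with ABTS, imaged by CCD camera before and after staining, with wells showing air bubbles set to zero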
No end group written: not given here.
A collection of binders and their measured RAMPO Score
Report the figure in rampo score without appending any unit label.

BINDER | READOUT NUMBER
KKLDTFFVKMSLFTER [SEQ ID NO 336] | 460

Input: Any idea what its RAMPO Score is? The binder is KKLDTFVVKLSLFTER [SEQ ID NO 11]
Output: 527

Input: Any idea what its RAMPO Score is? The binder is KGLDTFFVKLSLFTER [SEQ ID NO 412]
Output: 405

Input: Any idea what its RAMPO Score is? The binder is KKLDTFFVKLSLFTKR [SEQ ID NO 471]
Output: 324

Input: Any idea what its RAMPO Score is? The binder is KKLDTFYVKLSLFTER [SEQ ID NO 463]
Output: 334

Input: Any idea what its RAMPO Score is? The binder is KKLDTFFVKLSLFTEM [SEQ ID NO 529]
Output: 238
